Tested on: C. gloeosporioides
Assay: microbe, parasite or virus in culture
Type: cell-based
Settings: Colletotrichum gloeosporioides, read-out: EC50 (µg/mL) C. gloeosporioides
MEASUREMENT_TYPE: EC50 (µg/mL)
Answer format: numeric, µg/mL implied, no suffix.

Use the examples below as a reference point.
• CS(=O)(=O)c1nnc(-c2c(Cl)cccc2Cl)o1 = 33.1
• Cc1cc(O)no1 [Hymexazol, reference compound] = 37.6
• CS(=O)(=O)c1nnc(-c2c(F)cccc2F)o1 = 26.1

So what does the record say about EC50 for CS(=O)(=O)c1nnc(-c2ccccc2F)o1 ? 20.2

What do we get for CS(=O)(=O)c1nnc(-c2ccccc2Br)o1 ? 21.9

###

// values below are reported EC50
Tested on: R. solani
Experiment: microbe, parasite or virus in culture
Assay type: cell-based
Conditions: Rhizoctonia solani, read-out: EC50 (µg/mL) R. solani
Answer format: numeric, µg/mL implied, no suffix.

* Cc1cc(O)no1 [Hymexazol, reference compound] | 38.6
* CS(=O)(=O)c1nnc(-c2ccccc2Br)o1 | 20
* CS(=O)(=O)c1nnc(-c2ccccc2F)o1 | 6.43
* CS(=O)(=O)c1nnc(-c2c(F)cccc2F)o1 | 21.2

Then there is this compound:
So what does the record say about EC50 for CS(=O)(=O)c1nnc(-c2c(Cl)cccc2Cl)o1 ? 16.2

###

Tested on: F. oxysporum
Assay: Mycelial growth rate / poison plate antifungal test
Assay type: cell-based
Conditions: Fusarium oxysporum, read-out: EC50 (µg/mL) F. oxysporum
# if measured EC50 < 30 µg/mL: true (1)  # else: false (0)

Worked set:
• CS(=O)(=O)c1nnc(-c2c(Cl)cccc2Cl)o1 = false (0)
• CS(=O)(=O)c1nnc(-c2c(F)cccc2F)o1 = false (0)

I'd appreciate it if you could check whether Cc1cc(O)no1 [Hymexazol, reference compound] has EC50 smaller than 30 µg/mL. true (1)

###

// values below are reported melting point

* Cc1ccccc1-c1nnc(S(C)(=O)=O)o1 [Compound 5h] | 117 to 119 °C
* CS(=O)(=O)c1nnc(-c2c(F)cccc2F)o1 [Compound 5e] | 131 to 132 °C
* CS(=O)(=O)c1nnc(-c2ccc(F)c(F)c2F)o1 [Compound 5b] | 114 to 115 °C
* CS(=O)(=O)c1nnc(-c2ccncc2)o1 [Compound 5c] | 134 to 136 °C

Then there is this compound:
So what does the record say about melting point for CS(=O)(=O)c1nnc(-c2ccccc2F)o1 [Compound 5d] ? 97 to 99 °C

###

Test system: S. sclerotiorum
Assay: microbe, parasite or virus in culture
Format: cell-based
Conditions: Sclerotinia sclerotiorum, read-out: EC50 (µg/mL) S. sclerotiorum
MEASUREMENT_TYPE: EC50 (µg/mL)
Answer format: numeric, µg/mL implied, no suffix.

Use the examples below as a reference point.
* CS(=O)(=O)c1nnc(-c2c(Cl)cccc2Cl)o1 | 17.2
* Cc1cc(O)no1 [Hymexazol, reference compound] | 7.76
* CS(=O)(=O)c1nnc(-c2ccccc2F)o1 | 8.49

So what does the record say about EC50 for CS(=O)(=O)c1nnc(-c2ccccc2Br)o1 ? 14.8

What do we get for CS(=O)(=O)c1nnc(-c2c(F)cccc2F)o1 ? 15

###

// values below are reported melting point

Use the examples below as a reference point.
- CS(=O)(=O)c1nnc(-c2ccccc2Br)o1: 134 to 135 °C
- COc1ccccc1-c1nnc(S(C)(=O)=O)o1: 127 to 129 °C
- CS(=O)(=O)c1nnc(-c2ccccc2C(F)(F)F)o1: 102 to 104 °C
- CS(=O)(=O)c1nnc(-c2c(Cl)cccc2Cl)o1: 126 to 128 °C

Then there is this compound:
So what does the record say about melting point for CS(=O)(=O)c1nnc(-c2c(F)cccc2Cl)o1 ? 121 to 123 °C
